B1: Chromodomain-helicase-DNA-binding protein 4, residues 623 to 675; numbered along this chain, Q14839 (parent)
chain: MIHRILNHSVDKKGHVHYLIKWRDLPYDQASWESEDVEIQDYDLFKQSYWNHR

# Variants of: B1
# PROTOCOL TEXT: abundance fitness (aPCA) (normalised: wild type 0, dead -1); higher = more abundant; growth selection in yeast, the domain comes from the species named
# EXPERIMENTAL PARAMETERS: Homo sapiens
READOUT LABEL: abundance fitness
Please state the value as a number alone, without comment.

Please review the following examples before continuing.
>>> value_observed("H15Y")
-0.409
>>> value_observed("I20C")
-0.686
>>> value_observed("H15Q")
-0.021
>>> value_observed("V16P")
-0.59
>>> value_observed("K21L")
-0.204

Ask: I'd like to know its abundance fitness. The variant in question is `H15F`
Result: -0.344

# credit: the Human Domainome abundance scans (Beltran et al. 2025)
